tgt: HiBiT-tagged MDM2 (Homo sapiens)
Construct: expressed in transfected cells
Sequence (Q00987 whole entry): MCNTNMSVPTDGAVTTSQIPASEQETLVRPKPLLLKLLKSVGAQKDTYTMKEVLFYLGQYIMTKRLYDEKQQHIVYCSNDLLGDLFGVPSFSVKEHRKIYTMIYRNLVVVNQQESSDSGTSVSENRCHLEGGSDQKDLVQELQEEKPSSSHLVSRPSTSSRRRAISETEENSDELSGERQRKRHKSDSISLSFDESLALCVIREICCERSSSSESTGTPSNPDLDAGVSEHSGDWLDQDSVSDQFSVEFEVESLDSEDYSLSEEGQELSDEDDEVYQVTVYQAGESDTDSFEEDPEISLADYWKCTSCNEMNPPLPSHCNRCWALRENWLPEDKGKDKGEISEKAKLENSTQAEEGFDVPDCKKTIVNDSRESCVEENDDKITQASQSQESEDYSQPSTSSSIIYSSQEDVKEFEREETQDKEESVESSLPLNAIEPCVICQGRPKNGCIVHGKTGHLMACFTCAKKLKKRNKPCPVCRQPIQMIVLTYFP
measurementDescription: MDM2 HiBit HEK293T degradation
Format: cell-based
setupConditions: HEK293T cells stably expressing C-terminally HiBiT-tagged MDM2; 4 h; read-out: MDM2 HiBit HEK293T degradation 4 h: Average external-Abs DC50
measuredQuantity: DC50

[[record]]
compound = "CC(C)[C@@H](CS(=O)(=O)C(C)C)N1C(=O)[C@@](C)(CC(=O)N[C@H]2CC[C@H](CN3CCN(CCCc4ccc5c(c4)n(C)c(=O)n5C4CCC(=O)NC4=O)CC3)CC2)C[C@H](c2cccc(Cl)c2)[C@H]1c1ccc(Cl)cc1 (stereo partly shown)"
measuredquantity = "DC50"
endpointvalue = "10 to 100 nM"

[[record]]
compound = "COc1cc2c(cc1OC(C)C)[C@H](c1ccc(Cl)cc1)N(c1ccc(N(C)C[C@H]3CC[C@H](N4C[C@@H]5C[C@H]4CN5CCc4ccc5c(c4)n(C)c(=O)n5C4CCC(=O)NC4=O)CC3)cc1)C(=O)C2 (stereo partly shown)"
measuredquantity = "DC50"
endpointvalue = "10 to 100 nM"

[[record]]
compound = "O=C1CCN(c2ccc(CCCCN3CCN(C(=O)[C@H]4CC[C@H](NC(=O)[C@@H]5NC6(CCCCC6)[C@@]6(C(=O)Nc7cc(Cl)ccc76)[C@H]5c5cccc(Cl)c5F)CC4)CC3)cc2)C(=O)N1"
measuredquantity = "DC50"
endpointvalue = "> 1000 nM"

[[record]]
compound = "Cn1c(=O)n(C2CCC(=O)NC2=O)c2ccc(C3CC4(C3)CN(C[C@H]3CC[C@H](NC(=O)[C@@H]5NC6(CCCCC6)[C@@]6(C(=O)Nc7cc(Cl)ccc76)[C@H]5c5cccc(Cl)c5F)CC3)C4)cc21 (stereo partly shown)"
measuredquantity = "DC50"
endpointvalue = "< 10 nM"

